target: GRK6 (human); assay: radiometric filter-binding kinase assay, Kinase HotSpot; details: compound 0.5 µM; ATP 10 µM
assayEndpoint: residual activity (%)

{"columns": ["smilesStr", "observedResult"],
 "data": [
  ["CCCCc1c(-c2ccc(O)cc2)[nH]c2nccnc12", 83.5],
  ["O=C1NC(=O)c2c1c1c3ccccc3[nH]c1c1[nH]c3cc(Br)ccc3c21", 108],
  ["Nc1ncnc2c1cnn2-c1ccccc1", 92.3]
]}

----------
target: MAP4K4 (human) (UniProt O95819); assay: radiometric filter-binding kinase assay, Kinase HotSpot; conditions: compound 0.5 µM; ATP 10 µM
Sequence (O95819 whole entry, looked up): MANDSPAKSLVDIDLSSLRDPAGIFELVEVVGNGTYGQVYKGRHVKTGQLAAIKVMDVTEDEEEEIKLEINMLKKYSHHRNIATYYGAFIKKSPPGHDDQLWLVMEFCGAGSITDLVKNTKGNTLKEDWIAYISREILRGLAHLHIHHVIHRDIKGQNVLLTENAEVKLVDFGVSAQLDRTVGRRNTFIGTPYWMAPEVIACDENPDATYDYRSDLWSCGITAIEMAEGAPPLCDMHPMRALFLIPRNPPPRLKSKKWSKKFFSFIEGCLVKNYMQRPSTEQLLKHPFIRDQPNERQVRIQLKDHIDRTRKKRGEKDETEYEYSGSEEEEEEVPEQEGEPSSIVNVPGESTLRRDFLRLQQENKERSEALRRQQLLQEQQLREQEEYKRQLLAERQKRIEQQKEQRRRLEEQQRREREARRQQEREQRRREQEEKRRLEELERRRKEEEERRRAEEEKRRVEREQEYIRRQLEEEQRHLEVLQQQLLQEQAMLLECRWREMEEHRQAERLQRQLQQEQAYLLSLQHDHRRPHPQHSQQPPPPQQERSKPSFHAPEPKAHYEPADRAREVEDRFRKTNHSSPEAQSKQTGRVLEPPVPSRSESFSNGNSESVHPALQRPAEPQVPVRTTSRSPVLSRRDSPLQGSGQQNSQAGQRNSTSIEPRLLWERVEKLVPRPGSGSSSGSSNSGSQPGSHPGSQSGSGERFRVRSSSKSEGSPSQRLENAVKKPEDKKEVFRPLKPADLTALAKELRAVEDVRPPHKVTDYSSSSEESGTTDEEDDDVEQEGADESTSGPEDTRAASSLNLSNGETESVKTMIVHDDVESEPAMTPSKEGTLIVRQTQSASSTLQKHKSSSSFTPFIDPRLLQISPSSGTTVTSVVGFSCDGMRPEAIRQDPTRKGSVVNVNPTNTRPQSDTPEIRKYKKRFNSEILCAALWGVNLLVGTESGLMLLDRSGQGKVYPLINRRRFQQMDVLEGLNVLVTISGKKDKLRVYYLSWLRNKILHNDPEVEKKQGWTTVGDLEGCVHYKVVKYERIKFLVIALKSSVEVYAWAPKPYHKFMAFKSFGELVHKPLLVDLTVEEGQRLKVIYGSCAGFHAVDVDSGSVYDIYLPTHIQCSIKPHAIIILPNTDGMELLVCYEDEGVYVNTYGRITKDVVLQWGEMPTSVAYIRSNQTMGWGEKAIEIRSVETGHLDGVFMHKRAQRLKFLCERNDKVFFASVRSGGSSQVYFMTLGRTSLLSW

{"columns": ["smilesStr", "experimentalSystem", "residual activity [%]"],
 "data": [
  ["O=C(O)c1ccc2c3c1cccc3c(=O)n1c3ccccc3nc21", "MAP4K4 (human) (UniProt O95819)", 43.4],
  ["CCCCc1c(-c2ccc(O)cc2)[nH]c2nccnc12", "MAP4K4 (human) (UniProt O95819)", 60.9],
  ["O=C1NC(=O)c2cc(Nc3ccc(F)cc3)c(Nc3ccc(F)cc3)cc21", "MAP4K4 (human) (UniProt O95819)", 91.2],
  ["Nc1ncnc2c1cnn2-c1ccccc1", "MAP4K4 (human) (UniProt O95819)", 94.4],
  ["O=c1c2ccccc2[nH]c(=S)n1CCN1CCC(=C(c2ccc(F)cc2)c2ccc(F)cc2)CC1", "MAP4K4 (human) (UniProt O95819)", 99.8],
  ["O=c1cc(N2CCOCC2)oc2c(-c3ccccc3)cccc12", "MAP4K4 (human) (UniProt O95819)", 93.5],
  ["COc1cc2c(Nc3ccc(Br)cc3F)ncnc2cc1OCC1CCN(C)CC1", "MAP4K4 (human) (UniProt O95819)", 79.8]
]}
